Hey, just so you know, these numbers are from paper PMC3997483.

Assay: Plasma and brain pharmacokinetics (BBB penetration) after PO in mice
Assay type: in vivo
Settings: ICR, mouse; plasma, mice PO 100 mg/kg; read-out: AUC0–24h
MEASURE: AUC(0-t)
Answer format: value, then unit.

Name the reported AUC(0-t) value associated with the molecule COc1ccc2cc(C=Cc3ccc(N(C)C)cc3)oc2c1 [KMS88009]
30500 ng·h/mL

---

Molecular target: UniProt:P10635
Sequence (P10635 whole entry): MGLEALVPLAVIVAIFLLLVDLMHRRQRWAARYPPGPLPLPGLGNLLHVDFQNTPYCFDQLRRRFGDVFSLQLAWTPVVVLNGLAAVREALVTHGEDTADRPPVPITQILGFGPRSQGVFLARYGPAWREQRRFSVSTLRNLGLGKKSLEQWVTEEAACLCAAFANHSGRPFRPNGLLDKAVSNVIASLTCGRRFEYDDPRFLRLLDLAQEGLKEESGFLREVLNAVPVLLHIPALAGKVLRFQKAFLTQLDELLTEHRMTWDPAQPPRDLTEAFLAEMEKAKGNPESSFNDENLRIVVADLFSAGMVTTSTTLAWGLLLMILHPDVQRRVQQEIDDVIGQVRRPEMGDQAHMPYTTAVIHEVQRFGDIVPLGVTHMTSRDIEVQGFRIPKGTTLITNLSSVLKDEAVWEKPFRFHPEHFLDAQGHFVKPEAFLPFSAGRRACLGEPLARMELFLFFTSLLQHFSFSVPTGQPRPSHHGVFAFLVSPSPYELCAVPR
pIC50: −log10 of the molar value.
MEASURE: pIC50

Entry COc1ccc2cc(C=Cc3ccc(N(C)C)cc3)oc2c1 [KMS88009] , system UniProt:P10635: what pIC50 was measured?
< 4.30
